# Tested on: Chikungunya virus
# test.method.notes: Antiviral activity against Chikungunya virus 899 by qRT-PCR analysis
# Assay type: functional, organism-based
pEC50: −log10 of the molar value.
property.name: pEC50

1. CC(=O)O[C@@]12C[C@@H](C)[C@@]3(O)[C@@H](C=C(CO)C[C@]4(O)C(=O)C(C)=C[C@@H]34)[C@@H]1C2(C)C
5.12

====

Property: selectivity ratio; scope: individual compounds
# test.method.notes: Selectivity index, ratio of CC50 for African green monkey Vero cells to IC50 for Chikungunya virus MY/065/08/FN295485
# Format: toxicity
# assay.setup: read-out: Ratio IC50
property.name: selectivity ratio

1. O=c1c(O)c(-c2ccc(O)c(O)c2)oc2cc(O)ccc12
23
2. O=c1c(O)c(-c2ccc(O)c(O)c2)oc2cc(O)c(O)c(O)c12
16.3
3. O=C(O)[C@H]1O[C@@H](Oc2cc3oc(-c4ccccc4)cc(=O)c3c(O)c2O)[C@H](O)[C@@H](O)[C@@H]1O
188
